Entry source: ChEMBL document CHEMBL1129028

assay: Partition coefficient; Kp = concentration of test compound in n-octanol/concentration of the test compound in phosphate buffer (pH 7.4); assay type: physicochemical
Result Type: Kp

Examples from the recorded data:
COCCOC(=O)C1=C(C)NC(C)=C(C(=O)OC(C)C)C1c1cccc([N+](=O)[O-])c1 (centres undefined) [NIMODIPINE] : 187
CO/C(O)=C1\C(C)=NC(C)=C(C(=O)OCCOC(=O)C2=CN(C)C=CC2)C1c1cccc(Cl)c1Cl (centres undefined) : 366

a: CO/C(O)=C1\C(C)=NC(C)=C(C(=O)OCCO)C1c1cccc(Cl)c1Cl (centres undefined)
b: CCOC(=O)C1=C(C)NC(C)=C(C(=O)OC)C1c1cccc(Cl)c1Cl (centres undefined) [FELODIPINE]
Data request: Which one would you say has the larger Kp value: a , or b ? Refer to your chosen item by its label in the answer.
Data returned: b
(b: 442, a: 236)
